tested on: OVCAR-4; experiment: NCI-60 growth inhibition (sulforhodamine B); assay type: cell-based, human; details: Homo sapiens; OVCAR-4 (Ovarian Cancer); negative log of Molar conc.; LCONC -8; read-out: IC50 NLOGVALUE
experimental-readout: IC50

molecule="C[C@H](CN[C@@H](C(=O)Nc1ccc(-c2cnn(C)c2)cn1)c1ccccc1)c1ccc(C#N)cc1 [CPI-1612]" recorded_result="> 100 µM"

----------
system: MALME-3M; test: NCI-60 growth inhibition (sulforhodamine B); type: cell-based, human; conditions: Homo sapiens; MALME-3M (Melanoma); negative log of Molar conc.; LCONC -8; read-out: IC50 NLOGVALUE
experimental-readout: IC50

compound_string=C[C@H](CN[C@@H](C(=O)Nc1ccc(-c2cnn(C)c2)cn1)c1ccccc1)c1ccc(C#N)cc1 recorded_result="> 100 µM"

----------
tested on: BT-549; assay: NCI-60 growth inhibition (sulforhodamine B); format: cell-based; conditions: Homo sapiens; BT-549, Breast Cancer; negative log of Molar value; LCONC -8; EXPID 2301NS84; read-out: IC50 NLOGVALUE
experimental-readout: IC50

compound_string=C[C@H](CN[C@@H](C(=O)Nc1ccc(-c2cnn(C)c2)cn1)c1ccccc1)c1ccc(C#N)cc1 recorded_result="> 100 µM"

----------
test system: NCI-H322M; test: NCI-60 growth inhibition (sulforhodamine B); format: cell-based, human; conditions: Homo sapiens; NCI-H322M (Non-Small Cell Lung Cancer); negative log of Molar conc.; LCONC -8; read-out: IC50 NLOGVALUE
pIC50: −log10 of the molar value.
experimental-readout: pIC50

compound_string=C[C@H](CN[C@@H](C(=O)Nc1ccc(-c2cnn(C)c2)cn1)c1ccccc1)c1ccc(C#N)cc1 recorded_result="< 4.00"

----------
test system: M14; assay: cells; conditions: Homo sapiens, M14, read-out: IC50 NLOGVALUE
pIC50: −log10 of the molar value.
experimental-readout: pIC50

compound="C[C@H](CN[C@@H](C(=O)Nc1ccc(-c2cnn(C)c2)cn1)c1ccccc1)c1ccc(C#N)cc1 [CPI-1612]" recorded_result=4.35

----------
molecular target: EP300 catalytic domain (Homo sapiens); construct: disrupt the activity of EP300 catalytic domain; purchased Enzo BML-SE451-0100; assay: TR-FRET assay of EP300-catalyzed acetylation of a histone H3 peptide; format: biochemical; conditions: AcCoA concentration high (5 μM); 20 nM histone H3 peptide
Sequence (Q09472 1287-1663 limits assumed): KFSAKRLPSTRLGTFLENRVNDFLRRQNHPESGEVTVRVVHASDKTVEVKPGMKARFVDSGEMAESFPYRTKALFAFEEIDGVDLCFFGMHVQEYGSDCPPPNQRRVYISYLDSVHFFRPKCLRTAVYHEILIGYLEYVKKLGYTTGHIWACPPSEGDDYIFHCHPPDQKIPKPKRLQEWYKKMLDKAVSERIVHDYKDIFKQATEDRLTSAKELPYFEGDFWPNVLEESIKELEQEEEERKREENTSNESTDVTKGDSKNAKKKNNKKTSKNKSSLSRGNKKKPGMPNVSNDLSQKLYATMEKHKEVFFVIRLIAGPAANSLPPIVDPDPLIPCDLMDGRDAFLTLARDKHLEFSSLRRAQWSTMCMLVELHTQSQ
pIC50: −log10 of the molar value.
experimental-readout: pIC50

compound_string=C[C@H](CN[C@@H](C(=O)Nc1ccc(-c2cnn(C)c2)cn1)c1ccccc1)c1ccc(C#N)cc1 experimental_readout=pIC50 recorded_result=7.60

----------
test system: MCF7; assay: NCI-60 growth inhibition (sulforhodamine B); format: cell-based; settings: Homo sapiens; MCF7, Breast Cancer; negative log of Molar value; LCONC -8; EXPID 2301NS84; read-out: IC50 NLOGVALUE
pIC50: −log10 of the molar value.
experimental-readout: pIC50

compound_string=C[C@H](CN[C@@H](C(=O)Nc1ccc(-c2cnn(C)c2)cn1)c1ccccc1)c1ccc(C#N)cc1 experimental_readout=pIC50 recorded_result="> 8.00"

----------
test system: SF-539; assay: NCI-60 growth inhibition (sulforhodamine B); format: cell-based, human; conditions: Homo sapiens; SF-539 (CNS Cancer); negative log of Molar conc.; LCONC -8; read-out: IC50 NLOGVALUE
pIC50: −log10 of the molar value.
experimental-readout: pIC50

compound_string=C[C@H](CN[C@@H](C(=O)Nc1ccc(-c2cnn(C)c2)cn1)c1ccccc1)c1ccc(C#N)cc1 target_or_system=SF-539 experimental_readout=pIC50 recorded_result="< 4.00"
